Values were extracted from patent EP4616862A1.

Assay: in vitro

# compound, CC50
measured = [
    ("O=C[C@@H](CO)O[C@H](C=O)n1cnc2c(=O)[nH]cnc21 [Dialdehyde-Inosine, dialdehyde form of inosine]", "> 10 mM"),
]

----------
Assay: in vitro
Conditions: hamster, bhk-21 cells

# compound, CC50
rows = [
    ("O=c1[nH]c(=O)c2ncn([C@@H](CO)OC(CO)CO)c2[nH]1 [Acyclic diol-Xanthosine, acyclic diol form of xanthosine]", "> 10 mM"),
    ("O=c1[nH]cnc2c1ncn2[C@@H](CO)OC(CO)CO [Acyclic diol-Inosine, acyclic diol form of inosine]", "> 10 mM"),
    ("Nc1nc2c(ncn2[C@@H](C=O)O[C@@H](C=O)CO)c(=O)[nH]1 [Dialdehyde-Guanosine, dialdehyde form of guanosine]", "> 6 mM"),
    ("Nc1nc2c(ncn2[C@@H](CO)OC(CO)CO)c(=O)[nH]1 [Acyclic diol-Guanosine, acyclic diol form of guanosine]", "> 10 mM"),
]

----------
Test: Cytotoxicity (FCV example)
Format: cell-based, feline
Conditions: cat, crfk cells; Table 8 (FCV); cell line for cytotoxicity not given
Catalogue of CC50 readings, one per entry.
parameter_measured: CC50

# molecule, parameter_measured, result
records = [
    ("Nc1nc2c(ncn2[C@@H](C=O)O[C@@H](C=O)CO)c(=O)[nH]1 [Dialdehyde-Guanosine, dialdehyde form of guanosine]", "CC50", "> 6 mM"),
    ("Nc1nc2c(ncn2[C@@H](CO)OC(CO)CO)c(=O)[nH]1 [Acyclic diol-Guanosine, acyclic diol form of guanosine]", "CC50", "> 10 mM"),
    ("O=c1[nH]c(=O)c2ncn([C@@H](CO)OC(CO)CO)c2[nH]1 [Acyclic diol-Xanthosine, acyclic diol form of xanthosine]", "CC50", "> 10 mM"),
    ("O=c1[nH]cnc2c1ncn2[C@@H](CO)OC(CO)CO [Acyclic diol-Inosine, acyclic diol form of inosine]", "CC50", "> 10 mM"),
]

----------
System: Canine adenovirus (CAV)
Test: CAV infection inhibition in Vero cells (qPCR of viral DNA)
Type: cell-based
Conditions: Canine mastadenovirus A, 48 h; Vero cell line, CAV 100 TCID50/well, simultaneous treatment, 2 days, qPCR; read-out: IC50 (CAV infection inhibition concentration)

# compound, IC50
rows = [
    ("O=c1[nH]c(=O)c2ncn([C@@H](CO)OC(CO)CO)c2[nH]1 [Acyclic diol-Xanthosine, acyclic diol form of xanthosine]", "< 1350 µM"),
    ("O=c1[nH]cnc2c1ncn2[C@@H](CO)OC(CO)CO [Acyclic diol-Inosine, acyclic diol form of inosine]", "< 1780 µM"),
    ("O=C[C@@H](CO)O[C@H](C=O)n1cnc2c(=O)[nH]cnc21 [Dialdehyde-Inosine, dialdehyde form of inosine]", "< 326 µM"),
    ("Nc1nc2c(ncn2[C@@H](C=O)O[C@@H](C=O)CO)c(=O)[nH]1 [Dialdehyde-Guanosine, dialdehyde form of guanosine]", "< 85.9 µM"),
    ("O=C[C@@H](CO)O[C@H](C=O)n1cnc2c(=O)[nH]c(=O)[nH]c21 [Dialdehyde-Xanthosine, dialdehyde form of xanthosine]", "< 130 µM"),
    ("Nc1nc2c(ncn2[C@@H](CO)OC(CO)CO)c(=O)[nH]1 [Acyclic diol-Guanosine, acyclic diol form of guanosine]", "< 4130 µM"),
]
